ASSAY SYSTEM: T1, 4H3697-AA
T1 chain: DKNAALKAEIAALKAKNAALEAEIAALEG
EXPERIMENTAL PROTOCOL: two-hybrid library CCmax;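 also: natural log of median RNA to DNA barcode read ratio; higher means stronger binding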
MEASUREMENT SETUP: mean of both orientations
QUANTITY MEASURED: interaction score

>  <BINDER>
DEIAALEAEIAALEAENAALKAKNAALKG [4H32-AA]

>  <REPORTED MEASUREMENT>
-0.509

$$$$

a. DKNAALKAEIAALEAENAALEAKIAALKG [4H3606-AA]
b. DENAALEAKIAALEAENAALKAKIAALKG [4H1310-AA]
c. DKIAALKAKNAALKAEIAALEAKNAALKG [4H3016-AA]
Query: Hey, can you sort those binders up there by interaction score, smallest first? The response must list the labels following the requested ordering.
Reply: c, b, a
(c: -0.432, b: 0.439, a: 1.42)
